system: U2OS; assay: Multiplex assay against U2OS; type: toxicity, cell-based; conditions: human, 24 h, 1 µM, compound concentration 1 uM, replicate 2
metric: Population Fragmented Nuclei (%)
Numbers only, in %.

In the examples that follow, each entry is paired with its recorded Population Fragmented Nuclei (%).
Cl.N#Cc1ccc2[nH]cc(CCCCN3CCN(c4ccc5oc(C(N)=O)cc5c4)CC3)c2c1 [VILAZODONE HYDROCHLORIDE] = 15
c1cn2cc(-c3ccc4cn[nH]c4c3)nc(Nc3ccc(N4CCOCC4)cc3)c2n1 = 14
Cc1nc(-c2cn3c(n2)-c2ccc(-c4cnn(C(C)(C)C(N)=O)c4)cc2OCC3)n(C(C)C)n1 = 20
C[C@@]1(C(=O)Nc2ccc(F)nc2)CCCN1c1nc(Nc2cc(C3CC3)n[nH]2)c2cccn2n1 = 41
C=CC(=O)Nc1cccc(C(=O)Nc2ccc(Nc3cc(-c4[nH]c(SC)nc4C)ccn3)cc2)c1 = 3
CC(C)(O)CNc1ncc(-c2ccnc(Nc3ccnc(Cl)c3)n2)c(CC2CC2)n1 = 11
COc1cccc([C@@H](C)NCCCc2ccccc2Cl)c1.Cl [TECALCET HYDROCHLORIDE] = 8
CN(C)C(=O)/C(C#N)=C/c1ccc(-c2nc3cnc4[nH]ccc4c3n2C2CCCCC2)o1 = 5

State the recorded Population Fragmented Nuclei (%) for every item in the following list.
1. CN(C)C(=O)N[C@H]1CC[C@H](CCN2CCN(c3cccc(Cl)c3Cl)CC2)CC1.Cl [CARIPRAZINE HYDROCHLORIDE]
2. CN1CCCC(n2nc(Cc3ccc(Cl)cc3)c3ccccc3c2=O)CC1.Cl (stereo unspecified) [AZELASTINE HYDROCHLORIDE]
3. COc1cc(-n2cnc3cc(-c4ccc(Cl)cc4)sc3c2=O)ccc1OCCN1CCCC1
4. Cc1nc(Nc2n[nH]c3c2CN(C(=O)N[C@H](CN(C)C)c2ccccc2)C3(C)C)c2sccc2n1
5. Cc1csc2c(N[C@@H](C)CN3CCN(S(=O)(=O)c4ccc(Cl)c(Cl)c4)CC3)ncnc12
6. Cn1cc(-c2[nH]c3cc(NC(=O)[C@H](N)C4CCCCC4)cc4c3c2C=NNC4=O)cn1

1. 6
2. 7
3. 16
4. 16
5. 11
6. 13

Return reported Population Fragmented Nuclei (%) values for all items listed beneath this line.
1. COc1ncc(-c2ccc3nccc(-c4ccnnc4)c3c2)cc1NS(=O)(=O)c1ccc(F)cc1F
2. C=CC(=O)Nc1cc2c(Nc3ccc(F)c(Cl)c3)ncnc2cc1OCCCN1CCOCC1.Cl.Cl [CANERTINIB DIHYDROCHLORIDE]

1. 43
2. 14
